// reported log10 EC50 for each item listed
Molecular target: T1, CD300c抗原(11832-H08H，义翘神州) (UniProt Q08708)
T1 sequence (looked up): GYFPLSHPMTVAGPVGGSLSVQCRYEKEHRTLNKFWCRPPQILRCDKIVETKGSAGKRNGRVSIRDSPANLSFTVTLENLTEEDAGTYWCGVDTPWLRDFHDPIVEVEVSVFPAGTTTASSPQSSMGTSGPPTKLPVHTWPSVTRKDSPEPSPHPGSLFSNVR
Test: binding ELISA, CD300c antigen coated at 8 μg/mL, HRP anti-Fc IgG
MEASUREMENT_NAME: log10 EC50 (log10 of the value in µg/mL)

{"BINDER": "抗CD300c单克隆抗体 CL9 (antibody, from another filing, V domains shown) VH: EVQLLESGGGLVQPGGSLRLSCAASGFTFSSYYWSWVRQAPGKGLEWVSAISGSGGSTYYADSVKGRFTISRDNSKNTLYLQMNSLRAEDTAVYYCARIDVYGFDIWGQGTLVTVSS VL: QSVLTQPPSASGTPGQRVTISCSGSTSNIGTNYVYWYQQLPGTAPKLLIYDNNNRPSGVPDRFSGSKSGTSASLAISGLRSEDEADYYCQTWDSSTDVVFGGGTKLTVL", "log10 EC50": -1.03}
{"BINDER": "抗CD300c单克隆抗体 SK14 (antibody, from another filing) EVQLLESGGGLVQPGGSLRLSCAASGFTFSNFAIAWVRQAPGKGLEWVSAISGRGTSTYYADSVKGRFTISRDNSKNTLYLQMNSLRAEDTAVYYCARGVSGFDSWGQGTLVTVSSGGGGSGGGGSGGGGSEIVLTQSPGTLSLSPGERATLSCRASQSISSHLAWYQQKPGQAPRLLIYDTSNRATGIPDRFSGSGSGTDFTLTISRLEPEDFAVYYCQQSYSTPFTFGQGTKVEIK", "log10 EC50": -1.19}
{"BINDER": "抗CD300c单克隆抗体 CL5 (antibody, from another filing, V domains shown) VH: RVQLLESGGGLVQPGGSLRLSCAASGFTFSSYAMHWVRQAPGKGLEWVSSISGGGYGTYYADSVKGRFTISRDNSKNTLYLQMNSLRAEDTAVYYCARSTVWAFDIWGQGTLVTVSS VL: QSVLTQPPSASGTPGQRVTISCSGNNIGSKSVHWYQQLPGTAPKLLIYDVSKRPSERPDRFSGSKSGTSASLAISDLRSEDEADYYCQSFDSSGTWIFGGGTKLTVL", "log10 EC50": -1.49}
{"BINDER": "抗CD300c单克隆抗体 CL10 (antibody, from another filing, V domains shown) VH: EVQLLESGGGLVQPGGSLRLSCAASGFTFSSYGMHWVRQAPGKGLEWVSAISGSGGSTYYADSVKGRFTISRDNSKNTLYLQMNSLRAEDTAVYYCASGYGLMDVWGQGTLVTVSS VL: QSVLTQPPSASGTPGQRVTISCTRSSGIIASNYVQWYQQLPGTAPKLLIYRNNQRPSGVPDRFSGSKSGTSASLAISGLRSEDEADYYCSSYAGNNNLVFGGGTKLTVL", "log10 EC50": -1.41}
{"BINDER": "抗CD300c单克隆抗体 SK12 (antibody, from another filing) RVQLLESGGGLVQPGGSLRLSCAASGFTFSSYAMHWVRQAPGKGLEWVSAISGSGGDTYHADSVKGRFTISRDNSKNTLYLQMNSLRAEDTAVYYCTRGLSGFDYWGQGTLVTVSSGGGGSGGGGSGGGGSEIVLTQSPGTLSLSPGERATLSCRASQSISSYLNWYQQKPGQAPRLLIYDASNRAPGIPDRFSGSGSGTDFTLTISRLEPEDFAVYYCQQSYSIPITFGQGTKVEIK", "log10 EC50": -1.17}
{"BINDER": "抗CD300c单克隆抗体 SK11 (antibody, from another filing, V domains shown) VH: RVQLLESGGGLVQPGGSLRLSCAASGFTFSTYGMHWVRQAPGKGLEWVSAISGSGGSTYYADSVKGRFTISRDNSKNTLYLQMNSLRAEDTAVYYCARGLSGLDYWGQGTLVTVSS VL: EIVLTQSPGTLSLSPGERATLSCRSSQGITNYLAWYQQKPGQAPRLLIYDASNRATGIPDRFSGSGSGTDFTLTISRLEPEDFAVYYCQQSYSTPLTFGQGTKVEIK", "log10 EC50": -1.28}
{"BINDER": "抗CD300c单克隆抗体 SK17 (antibody, from another filing, V domains shown) VH: EVQLLESGGGLVQPGGSLRLSCAASGFTFSSYYWSWVRQAPGKGLEWVSTITGSGGSTDYANSVKGRFTISRDNSKNTLYLQMNSLRAEDTAVYYCATGGGIFDYWGQGTLVTVSS VL: EIVLTQSPGTLSLSPGERATLSCQASQTISNYLNWYQQKPGQAPRLLIYDASNRATGIPDRFSGSGSGTDFTLTISRLEPEDFAVYYCQQYNSYPPSFGQGTKVEIK", "log10 EC50": -1.27}
{"BINDER": "抗CD300c单克隆抗体 SK15 (antibody, from another filing, V domains shown) VH: RVQLLESGGGLVQPGGSLRLSCAASGFTFSSYAMHWVRQAPGKGLEWVSAINGSGGSTYYADSVKGRFTISRDNSKNTLYLQTNSLRAEDTAVYYCARGLQGFDYWGQGTLVTVSS VL: EIVLTQSPGTLSLSPGERATLSCQASQDITNYLNWYQQKPGQAPRLLIYDASSLETGIPDRFSGSGSGTDFTLTISRLEPEDFAVYYCQQSYSTPITFGQGTKVEIK", "log10 EC50": 1.17}
{"BINDER": "抗CD300c单克隆抗体 CK2 (antibody, from another filing, V domains shown) VH: EVQLLESGGGLVQPGGSLRLSCAASGFTFSSYGMHWVRQAPGKGLEWVSAISGSGTSIYYADSVKGRFTISRDNSKNTLYLQMNSLRAEDTAVYYCARGGTAFDYWGQGTLVTVSS VL: EIVLTQSPGTLSLSPGERATLSCRASQRSDNYLAWYQQKPGQAPRLLIYDASNRATGIPDRFSGSGSGTDFTLTISRLEPEDFAVYYCQQSYSTPFTFGQGTKVETK", "log10 EC50": -1.48}
{"BINDER": "抗CD300c单克隆抗体 SK13 (antibody, from another filing, V domains shown) VH: RVQLLESGGGLVQPGGSLRLSCAASGFTFSDYAMSWVRQAPGKGLEWVSSISSSSSYIYYTDSVKGRFTISRDNSKNTLYLQMNSLRAEDTAVYYCARGGYGFDYWGQGTLVTVSS VL: EIVLTQSPGTLSLSPGERATLSCRASQSISSYLNWYQQKPGQAPRLLIYSASSRPQGIPDRFSGSGSGTDFTLTISRLEPEDFAVYYCQQYDDLPFTFGQGTKVEIK", "log10 EC50": -1.36}
{"BINDER": "抗CD300c单克隆抗体 CL7 (antibody, from another filing, V domains shown) VH: EVQLLESGGGLVQPGGSLRLSCAASGFTFSRYAMSWVRQAPGKGLEWVSAISGSGGSTYYADSVKGRFTISRDNSKNTLYLQMNSLRAEDTAVYYCARSSQGIFDIWGQGTLVTVSS VL: QSVLTQPPSASGTPGQRVTISCSGNNIGTRRVHWYQQLPDTAPKLLIYSKNNRPSGVPDRFSGSKSGTSASLAISGLRSEDEADYYCAAWDDSLSGPVFGGGTKLTVL", "log10 EC50": -1.33}
